Test system: redroot pigweed
Assay: Test A pre-/postemergence greenhouse test
Type: in vivo, Amaranthus retroflexus
Details: Postemergence, 500 g ai/ha; 0 to 100 scale, 0 is no effect, 100 is complete control
Below, each entry is listed with its recorded Pigweed plant response rating.
Readout label: Pigweed plant response rating

Compound	Val
Cn1nc(C(F)(F)C(F)(F)F)c(CS(=O)(=O)c2cccc[n+]2[O-])c1OCC(F)(F)F [Compound 84]	70
Cc1cc[n+]([O-])c([S+]([O-])Cc2c(C(F)(F)F)nn(C)c2OCC(F)(F)C(F)(F)F)c1 (stereo not drawn) [Compound 90]	30
C#CCOc1c(C[S+]([O-])c2cccc[n+]2[O-])c(C(F)(F)F)nn1C (stereo not drawn) [Compound 76]	80
Cn1nc(C(F)(F)F)c(C[S+]([O-])c2cc(C(C)(C)C)cc[n+]2[O-])c1OCC(F)(F)F (racemic) [Compound 61]	60
Cn1nc(C(F)(F)F)c(C[S+]([O-])c2cc(Cl)cc[n+]2[O-])c1Cl (racemic) [Compound 39]	100
CC(c1c(C(F)(F)F)nn(C)c1OCC(F)(F)F)S(=O)(=O)c1cccc[n+]1[O-] (racemic) [Compound 33]	90
CCc1cc[n+]([O-])c(S(=O)(=O)Cc2c(C(F)(F)F)nn(C)c2OCC(F)(F)F)c1 [Compound 60]	80
CCn1nc(C(F)(F)F)c(CS(=O)(=O)c2cc(C)cc[n+]2[O-])c1OCC(F)(F)F [Compound 64]	80
Cc1cc[n+]([O-])c([S+]([O-])Cc2c(C(F)(F)F)nn(C)c2OC(F)F)c1 (stereo not drawn) [Compound 1]	100
CCc1cc[n+]([O-])c(S(=O)(=O)Cc2c(C(F)(F)F)nn(C)c2OC(F)F)c1 [Compound 102]	100
Cn1nc(C(F)(F)F)c(C[S+]([O-])c2ccc(Cl)c[n+]2[O-])c1OCC(F)F (stereo not drawn) [Compound 85]	90
Cn1nc(C(F)(F)F)c(C[S+]([O-])c2ccc(Cl)c[n+]2[O-])c1OCC(F)(F)F (racemic) [Compound 62]	80
Cn1nc(C(F)(F)F)c(CS(=O)(=O)c2cccc[n+]2[O-])c1OC(F)F [Compound 4]	80
CCCc1cc[n+]([O-])c([S+]([O-])Cc2c(C(F)(F)F)nn(C)c2OC(F)F)c1 (stereo not drawn) [Compound 116]	90
Cn1nc(C(F)(F)F)c(CS(=O)(=O)c2cc(C(C)(C)C)cc[n+]2[O-])c1OCC(F)(F)F [Compound 72]	60
Cc1cc[n+]([O-])c(S(=O)(=O)C(Cl)c2c(C(F)(F)F)nn(C)c2OCC(F)(F)F)c1 (racemic) [Compound 37]	50
Cn1nc(C(F)(F)F)c(C[S+]([O-])c2cc(C3CC3)cc[n+]2[O-])c1OC(F)F (stereo not drawn) [Compound 120]	80
Cn1nc(C(F)(F)F)c(CS(=O)(=O)c2cc(F)cc[n+]2[O-])c1Cl [Compound 41]	0
Cn1nc(C(F)(F)F)c(C[S+]([O-])c2cc(Cl)cc[n+]2[O-])c1OCC(F)(F)F (stereo not drawn) [Compound 68]	80
CC(c1c(C(F)(F)F)nn(CC(F)(F)F)c1Cl)[S+]([O-])c1cccc[n+]1[O-] (stereo not drawn) [Compound 46]	50
C#CCOc1c(CS(=O)(=O)c2cccc[n+]2[O-])c(C(F)(F)F)nn1C [Compound 103]	60
Cc1cc([S+]([O-])Cc2c(C(F)(F)F)nn(C)c2OCC(F)(F)F)[n+]([O-])cc1Cl (stereo not drawn) [Compound 70]	80
Cn1nc(C(F)(F)F)c(C(Cl)S(=O)(=O)c2cccc[n+]2[O-])c1Cl (stereo not drawn) [Compound 12]	0
Cn1nc(C(F)(F)F)c(C(Cl)S(=O)(=O)c2cccc[n+]2[O-])c1OCC(F)(F)F (racemic) [Compound 36]	60

###

Test system: morningglory
Assay: Test C pre-/postemergence test
Assay type: in vivo, Ipomoea coccinea
Details: 125 g ai/ha, preemergence; scale 0 (no effect) to 100 (complete control)
The entries below are paired with their reported Morningglory plant response rating.
Readout label: Morningglory plant response rating

Compound	System	Readout label	Val
CCc1cc[n+]([O-])c([S+]([O-])Cc2c(C(F)(F)F)nn(C)c2OC(F)F)c1 (centres unmarked) [Compound 101]	morningglory	Morningglory plant response rating	100
[O-][n+]1cc(Cl)ccc1[S+]([O-])Cc1c(C(F)(F)F)nn(CC(F)(F)F)c1Cl (centres unmarked) [Compound 47]	morningglory	Morningglory plant response rating	100
Cn1nc(C(F)(F)C(F)(F)F)c(C[S+]([O-])c2ccc(Cl)c[n+]2[O-])c1OCC(F)(F)F (centres unmarked) [Compound 92]	morningglory	Morningglory plant response rating	85
C#CCOc1c(C[S+]([O-])c2cccc[n+]2[O-])c(C(F)(F)F)nn1C (centres unmarked) [Compound 76]	morningglory	Morningglory plant response rating	100
Cn1nc(C(F)(F)F)c(C[S+]([O-])c2ccc(F)c[n+]2[O-])c1OCC(F)(F)F (centres unmarked) [Compound 67]	morningglory	Morningglory plant response rating	100

###

Tested on: rice
Assay: Test C flooded paddy test
Type: in vivo, Oryza sativa
Conditions: Flood, 62 g ai/ha; scale 0 to 100, 0 no effect, 100 complete control; 13 to 15 days
Cut-off 50 on Plant response rating, Rice, inclusive. At or above means Met; below means Not met.

Compound	Label
Cc1cc[n+]([O-])c(S(=O)(=O)C(Cl)c2c(C(F)(F)F)nn(C)c2Cl)c1 (racemic) [Compound 22]	Not met
Cc1cc[n+]([O-])c([S+]([O-])C(C)c2c(C(F)(F)F)nn(C)c2Cl)c1 (mixture of isomers) [Compound 15]	Not met
Cn1nc(C(F)(F)F)c(C[S+]([O-])c2c(F)ccc[n+]2[O-])c1Cl (stereo not shown) [Compound 52]	Not met
Cn1nc(C(F)(F)F)c(C[S+]([O-])c2ccc(Cl)c[n+]2[O-])c1Cl (racemic) [Compound 17]	Met
Cn1nc(C(F)(F)F)c(C(Cl)S(=O)(=O)c2cccc[n+]2[O-])c1Cl (stereo not shown) [Compound 12]	Met
Cn1nc(C(F)(F)F)c(C[S+]([O-])c2cc(C(C)(C)C)cc[n+]2[O-])c1OC(F)F (racemic) [Compound 24]	Not met
Cc1cc[n+]([O-])c(S(=O)(=O)Cc2c(C(F)(F)F)nn(CC(F)(F)F)c2Cl)c1 [Compound 49]	Not met
CC(c1c(C(F)(F)F)nn(C)c1Cl)S(=O)(=O)c1ccc(Cl)c[n+]1[O-] (racemic) [Compound 40]	Not met
CC(c1c(C(F)(F)F)nn(C)c1OC(F)F)S(=O)(=O)c1ccc(Br)c[n+]1[O-] (racemic) [Compound 23]	Met
Cn1nc(C(F)(F)F)c(CS(=O)(=O)c2cccc[n+]2[O-])c1OC(F)F [Compound 4]	Not met
Cc1cc[n+]([O-])c(S(=O)(=O)C(C)c2c(C(F)(F)F)nn(C)c2OC(F)F)c1 (stereo not shown) [Compound 11]	Met
CC(c1c(C(F)(F)F)nn(C)c1OC(F)F)S(=O)(=O)c1cccc[n+]1[O-] (stereo not shown) [Compound 5]	Met

###

System: crabgrass
Assay: Test C pre-/postemergence test
Assay type: in vivo, Digitaria sanguinalis
Details: 125 g ai/ha, preemergence; scale 0 (no effect) to 100 (complete control)
Let's look at some molecules and their measured Crabgrass, Large plant response rating.

Molecule	System	Crabgrass, Large plant response rating
Cc1cc[n+]([O-])c(S(=O)(=O)Cc2c(C(F)(F)F)nn(C)c2OC(C)C(F)(F)F)c1 (stereo not shown)	crabgrass	95
C#CCOc1c(CS(=O)(=O)c2cccc[n+]2[O-])c(C(F)(F)F)nn1C	crabgrass	100
Cn1nc(C(F)(F)F)c(C[S+]([O-])c2cc(Cl)cc[n+]2[O-])c1Cl (racemic)	crabgrass	100
CC(Oc1c(C[S+]([O-])c2ccc(Cl)c[n+]2[O-])c(C(F)(F)F)nn1C)C(F)(F)F (stereo not shown)	crabgrass	100

###

System: common ragweed
Assay: Test C pre-/postemergence test
Type: in vivo, Ambrosia elation
Details: 125 g ai/ha, preemergence; scale 0 (no effect) to 100 (complete control)
Ragweed plant response rating by entry:

Molecule	Ragweed plant response rating
Cn1nc(C(F)(F)F)c(CS(=O)(=O)c2cccc[n+]2[O-])c1OCC(F)F	100
Cn1nc(C(F)(F)F)c(C[S+]([O-])c2ccc(F)c[n+]2[O-])c1Cl (stereo not drawn)	5
Cn1nc(C(F)(F)F)c(C[S+]([O-])c2cc(F)cc[n+]2[O-])c1Cl (racemic)	90

###

Some compounds, each annotated with its measured Bermudagrass plant response rating.
Test system: bermudagrass
Assay: Test F preemergence test
Type: in vivo, Cynodon dactylon
Details: 62 g ai/ha, Preemergence; scale 0 to 100

Compound	System	Bermudagrass plant response rating
Cc1cc[n+]([O-])c(S(=O)(=O)Cc2c(C(F)(F)F)nn(C)c2Cl)c1	bermudagrass	60
Cc1cc[n+]([O-])c(S(=O)(=O)C(C)c2c(C(F)(F)F)nn(C)c2OC(F)F)c1 (centres unmarked)	bermudagrass	98
Cn1nc(C(F)(F)F)c(CS(=O)(=O)c2cccc[n+]2[O-])c1OC(F)F	bermudagrass	100
Cn1nc(C(F)(F)F)c(C[S+]([O-])c2cccc[n+]2[O-])c1OCC(F)(F)F (racemic)	bermudagrass	80
CCn1nc(C(F)(F)F)c(CS(=O)(=O)c2cc(C)cc[n+]2[O-])c1OCC(F)(F)F	bermudagrass	75
